Below is a list of entries, each paired with its recorded log10 IC50 value.
target: orexin-1 (Homo sapiens (Human)); experiment: Intracellular calcium measurement (FLIPR), CHO cells expressing human orexin-1 receptor, 3 nM orexin-A; assay type: cell-based; conditions: CHO cells expressing human orexin-1 receptor, FLIPR, 3 nM orexin-A; geometric mean if determined several times; read-out: IC50 OX1
Sequence (O43613 whole entry): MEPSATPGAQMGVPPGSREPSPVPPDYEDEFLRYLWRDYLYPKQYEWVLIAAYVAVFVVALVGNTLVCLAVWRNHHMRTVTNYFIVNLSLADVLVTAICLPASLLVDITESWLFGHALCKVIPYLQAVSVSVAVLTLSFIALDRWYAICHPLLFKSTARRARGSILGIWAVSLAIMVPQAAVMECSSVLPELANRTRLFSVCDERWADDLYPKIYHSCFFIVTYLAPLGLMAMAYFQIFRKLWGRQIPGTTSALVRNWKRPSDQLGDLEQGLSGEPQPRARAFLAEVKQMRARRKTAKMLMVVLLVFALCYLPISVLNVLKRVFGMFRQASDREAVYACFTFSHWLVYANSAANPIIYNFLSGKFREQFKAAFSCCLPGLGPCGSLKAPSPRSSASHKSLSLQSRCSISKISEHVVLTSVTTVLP
// units: nM (pre-log); metric: IC50; scale: log10

Illustrative cases are given below, each with its answer.
- Cc1cc(C)nc(-c2noc([C@@H]3CCCN3C(=O)c3cc(C)ccc3-n3nccn3)n2)c1: 2.90
- O=C(c1ccccc1-c1ncco1)N1CCC[C@H]1c1nc(-c2ccccc2OC(F)(F)F)no1: 2.02
- COc1c(Cl)cccc1-c1nnc([C@@H]2CCCN2C(=O)c2cc(C)ccc2-n2nccn2)[nH]1: 2.13
- Cc1ccc(-n2nccn2)c(C(=O)N2CCC[C@@]2(C)c2nc(-c3cccc(Cl)c3C)no2)c1: 2.02
- COc1ccccc1-c1nnc([C@@H]2CCCN2C(=O)c2cc(C)ccc2-n2nccn2)[nH]1: 1.69
- CCOc1ncccc1-c1noc([C@@H]2CCCN2C(=O)c2ccc(C)cc2-n2nccn2)n1: 1.91

With those in mind, consider the next compound.
Reported log10 IC50 ( COc1cc(C(=O)N2CCC[C@H]2c2noc(-c3cccc(OC)c3C)n2)c(-n2nccn2)cc1C ) = 2.11

###

target: human orexin-2 receptor (Homo sapiens (Human)); experiment: Intracellular calcium measurement (FLIPR), CHO cells expressing human orexin-2 receptor, 3 nM orexin-A; type: cell-based; conditions: CHO cells expressing human orexin-2 receptor, FLIPR, 3 nM orexin-A; geometric mean if determined several times; read-out: IC50 OX2
Sequence (O43614 whole entry): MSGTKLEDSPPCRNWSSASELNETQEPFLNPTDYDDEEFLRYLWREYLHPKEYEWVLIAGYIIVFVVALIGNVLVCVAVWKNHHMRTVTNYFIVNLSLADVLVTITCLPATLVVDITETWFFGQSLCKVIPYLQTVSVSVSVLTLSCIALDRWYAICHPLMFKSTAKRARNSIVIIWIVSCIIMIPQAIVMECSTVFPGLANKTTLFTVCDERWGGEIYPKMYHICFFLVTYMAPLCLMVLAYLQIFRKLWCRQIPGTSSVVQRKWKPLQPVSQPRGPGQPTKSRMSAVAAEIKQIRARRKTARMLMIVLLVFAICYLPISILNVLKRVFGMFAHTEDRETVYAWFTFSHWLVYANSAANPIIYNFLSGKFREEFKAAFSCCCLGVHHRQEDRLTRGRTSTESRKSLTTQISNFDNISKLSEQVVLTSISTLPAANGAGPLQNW
Lab note - cut at 20 nM for IC50: Met if strictly below, Not met if not.

Some solved entries appear below for comparison.
* CCOc1cnccc1-c1noc([C@@H]2CCCN2C(=O)c2cc(C)ccc2-n2nccn2)n1 [compound 55] | Not met
* Cc1ccc(-n2nccn2)c(C(=O)N2CCC[C@H]2c2ncc(-c3cccc(Cl)c3)[nH]2)c1 [compound 523] | Not met
* Cc1cc(C)nc(-c2noc([C@@H]3CCCN3C(=O)c3cc(C)ccc3-n3nccn3)n2)c1 [compound 12] | Not met
* Cc1ccc(-n2nccn2)c(C(=O)N2CCC[C@@]2(C)c2nc(-c3ccccc3)no2)c1 [Example 540] | Not met
* COc1cc(C(=O)N2CCC[C@H]2c2nc(-c3ccccc3OC(F)(F)F)no2)c(-n2nccn2)cc1Cl [compound 281] | Met
* COc1ccccc1-c1noc([C@@H]2CCCN2C(=O)c2nc(C)ccc2-n2nccn2)n1 [compound 235] | Not met
* COc1c(Cl)cccc1-c1nnc([C@@H]2CCCN2C(=O)c2cc(C)ccc2-n2nccn2)[nH]1 [compound 488] | Met
* Cc1ccc(-c2ccccn2)c(C(=O)N2CCC[C@H]2c2nc(-c3ccccc3OC(F)F)no2)c1 [compound 191] | Not met

Let us examine a further case.
Query block: hey, is IC50 for CCOc1ncccc1-c1nnc([C@@H]2CCCN2C(=O)c2ccc(Cl)cc2-n2nccn2)[nH]1 [compound 481] lower than 20 nM or not?
Result block: Not met

###

// IC50 lookup, one value per entry
target: orexin-1 (Homo sapiens (Human)); assay: Intracellular calcium measurement (FLIPR), CHO cells expressing human orexin-1 receptor, 3 nM orexin-A; type: cell-based; settings: read-out: IC50 OX1
Answer as a quantity: numeral, then unit.

Worked examples follow.
• Cc1cc(C(=O)N2CCC[C@H]2c2noc(-c3cccc(Cl)c3C)n2)c(-n2nccn2)cc1C = 7 nM
• Cc1ccc(-n2nccn2)c(C(=O)N2CCC[C@H]2c2nc(-c3cccc(Cl)c3C)no2)c1F = 115 nM
• COc1c(F)cccc1-c1noc([C@@H]2CCCN2C(=O)c2cccc(Cl)c2-n2nccn2)n1 = 690 nM

Cc1c(F)cccc1-c1noc([C@@H]2CCCN2C(=O)c2cc(Cl)ccc2-n2nccn2)n1 yielded IC50 of 262 nM

Input Cc1c(Cl)cccc1-c1noc([C@@H]2CCCN2C(=O)c2ccc(Cl)cc2-n2nccn2)n1 . Output IC50: 145 nM

Record summary for CCOc1ncccc1-c1noc([C@@H]2CCCN2C(=O)c2cc(OC)c(Cl)cc2-n2nccn2)n1 : reported IC50 = 32 nM

Value of IC50 reported for the compound O=C(c1ccc(Cl)cc1-n1nccn1)N1CCC[C@H]1c1noc(-c2ccccc2OC(F)(F)F)n1 is 23 nM

The compound listed as COc1c(Cl)cccc1-c1nc([C@@H]2CCCN2C(=O)c2cc(C)ccc2-n2nccn2)no1 shows IC50 equal to 22 nM

response.value for Cc1c(Cl)cccc1-c1noc([C@@H]2CCCN2C(=O)c2cc(OC(F)(F)F)ccc2-n2nccn2)n1 (field: IC50) = 895 nM

The recorded IC50 for Cc1cccc(-c2nc([C@@H]3CCCN3C(=O)c3ccc(Cl)cc3-n3nccn3)no2)c1C is 85 nM

Notebook: COc1cccc(-c2nccnc2C(=O)N2CCC[C@H]2c2nc(-c3cccc(Cl)c3C)no2)c1 , IC50 read as 200 nM

Item: COc1ccccc1-c1noc([C@@H]2CCCN2C(=O)c2cc(Cl)ccc2-n2nccn2)n1 | IC50: 272 nM

Reported IC50 of COc1ccc(C(=O)N2CCC[C@H]2c2nc(-c3cccc(Cl)c3C)no2)c(-n2nccn2)c1 : 260 nM

Note to self: IC50 recorded for CCc1ccccc1-c1nc([C@@H]2CCCN2C(=O)c2cc(Cl)ccc2-n2nccn2)no1 was 31 nM

The compound listed as Cc1c(Cl)cccc1-c1noc([C@@H]2CCCN2C(=O)c2cccc(F)c2-n2nccn2)n1 shows IC50 equal to 1080 nM
